Cited source for all entries: PubChem BioAssay AID488969

- Target desc: Metabotropic glutamate receptor 8 (Rattus norvegicus) (UniProt P70579)
- Sequence (P70579 whole entry, looked up): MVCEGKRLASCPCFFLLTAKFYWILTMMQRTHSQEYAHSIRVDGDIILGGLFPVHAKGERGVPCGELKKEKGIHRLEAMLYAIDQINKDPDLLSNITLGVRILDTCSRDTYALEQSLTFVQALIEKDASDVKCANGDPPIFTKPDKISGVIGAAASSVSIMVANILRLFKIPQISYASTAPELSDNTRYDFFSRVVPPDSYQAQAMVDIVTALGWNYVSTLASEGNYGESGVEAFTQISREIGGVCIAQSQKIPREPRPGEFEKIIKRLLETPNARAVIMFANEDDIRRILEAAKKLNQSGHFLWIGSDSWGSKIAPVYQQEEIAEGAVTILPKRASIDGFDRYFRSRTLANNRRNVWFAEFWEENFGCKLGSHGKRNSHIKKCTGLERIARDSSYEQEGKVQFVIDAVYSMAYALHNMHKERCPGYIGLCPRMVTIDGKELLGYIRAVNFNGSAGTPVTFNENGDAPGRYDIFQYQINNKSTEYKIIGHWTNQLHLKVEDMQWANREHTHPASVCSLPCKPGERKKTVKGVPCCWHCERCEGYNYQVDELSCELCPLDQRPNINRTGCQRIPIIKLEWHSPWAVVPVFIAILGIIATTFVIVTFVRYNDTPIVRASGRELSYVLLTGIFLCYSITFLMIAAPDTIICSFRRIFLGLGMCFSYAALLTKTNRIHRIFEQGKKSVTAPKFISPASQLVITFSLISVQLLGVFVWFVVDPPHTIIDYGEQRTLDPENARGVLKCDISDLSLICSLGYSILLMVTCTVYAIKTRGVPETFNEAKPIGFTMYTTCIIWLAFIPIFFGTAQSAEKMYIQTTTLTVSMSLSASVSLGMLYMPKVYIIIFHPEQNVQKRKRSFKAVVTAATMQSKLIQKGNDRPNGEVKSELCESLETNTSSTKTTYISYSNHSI
- Assay explanation: mGluR8 Gi/Go-coupled signaling modulation – cell-based, rat, thallium flux, HTS, primary screen (AID 488969)
- Test context: HEK293 rat mGluR8, GIRK thallium flux, FluoZin2; at 10 µM; stronger effect = higher value; submaximal glutamate (EC20) added with thallium
Over roughly 110,000 compounds, “z-score” has its median near -0.1; the highest 2% begin near 2. Only a selection was taken, and the highest values are over-represented in it overall.
Reported z-score values for a set of compounds

{"Compound": "Cc1ccc(C(=O)NC(C)c2ccc(F)cc2)cc1 (stereo not given)", "z-score": -0.249}
{"Compound": "Cc1cccc(NC(=S)NNC(=O)c2ccccc2Br)c1", "z-score": 0.847}
{"Compound": "Cc1cccc(NC(=S)NNC(=O)c2ccc(Br)o2)c1", "z-score": 1.14}
{"Compound": "Cc1ccccc1NC(=S)NNC(=O)c1csc2c1CCC(C)C2 (stereo not given)", "z-score": 8.84}
{"Compound": "C/C(=N\\NC(=O)c1cc2c(s1)CCC(C)C2)c1ccncc1 (stereo not given)", "z-score": -0.506}

----------
- Target desc: Metabotropic glutamate receptor 8 (Rattus norvegicus) (UniProt P70579)
- Assay explanation: mGluR8 Gi/Go-coupled signaling modulation – cell-based, rat, thallium flux, HTS, primary screen (AID 488969)
- Test context: HEK293 rat mGluR8, GIRK thallium flux, FluoZin2; at 10 µM; stronger effect = higher value; submaximal glutamate (EC20) added with thallium
In all, about 110,000 compounds were measured (“z-score”: median about -0.1, highest 2% from about 2 on). Only a selection was taken, and the highest values are over-represented in it overall.

{"Compound": "CCN(CC)C(=O)COc1cc(C)cc2oc(=O)cc(-c3ccccc3)c12", "z-score": -0.189}
{"Compound": "Cc1nn2c(-n3ccnc3C)c3c(nc2c1-c1ccccc1)CCC3", "z-score": -0.311}
{"Compound": "Cc1occc1-c1nnc(SCc2cc(=O)n3cc(Br)ccc3n2)n1C", "z-score": 0.0968}
{"Compound": "COc1ccc(C(=O)Nc2nc3ccc4nc(C)sc4c3s2)cc1", "z-score": -0.0988}
{"Compound": "Cc1ccc(NC(=O)N2CCCN(Cc3ccc(F)cc3)C2)cc1C", "z-score": -0.435}
{"Compound": "CCN(C(=O)CSc1nc2cc(C(F)(F)F)ccc2n1Cc1ccccc1)C1CCS(=O)(=O)C1 (stereo unspecified)", "z-score": -0.724}
{"Compound": "Cc1ccc(-c2cn(-c3ccccc3)c(SCC(N)=O)n2)cc1C", "z-score": -1.06}
{"Compound": "CC(=O)c1nc(N2C(=O)CC(Cc3ccc(C)cc3)C2=O)sc1C (stereo unspecified)", "z-score": -0.714}
{"Compound": "O=C(Nc1ccc(Cl)cc1)N1CCCN(Cc2ccccc2F)C1", "z-score": -0.218}
{"Compound": "CN(C(=O)CSc1nc2ccccc2n1CCc1ccccc1)C1CCS(=O)(=O)C1 (stereo unspecified)", "z-score": 0.483}
{"Compound": "O=C(Cc1ccccc1)Nc1c(C(=O)N2CCCCCC2)cnn1-c1ccccc1", "z-score": -0.477}
{"Compound": "O=C1CC(c2cccc(Br)c2)c2cc3c(cc2N1)CCC3 (stereo unspecified)", "z-score": -0.00205}
{"Compound": "CC(=O)c1nc(N2C(=O)CC(Cc3cccc(C)c3)C2=O)sc1C (stereo unspecified)", "z-score": -0.395}
{"Compound": "O=C(Cn1c(SCc2ccccc2)nc2ccccc21)N1CCOCC1", "z-score": -0.096}
{"Compound": "Cc1ccc(-c2cn(-c3ccccc3)c(SCC(=O)NC3CCS(=O)(=O)C3)n2)cc1C (stereo unspecified)", "z-score": 3.44}
{"Compound": "O=C(CSc1nc2ccccc2n1CCc1ccccc1)NC1CCS(=O)(=O)C1 (stereo unspecified)", "z-score": 2.39}

----------
Reported z-score values for a set of molecules
- Target desc: Metabotropic glutamate receptor 8 (Rattus norvegicus) (UniProt P70579)
- Assay explanation: mGluR8 Gi/Go-coupled signaling modulation – cell-based, rat, thallium flux, HTS, primary screen (AID 488969)
- Test context: HEK293 rat mGluR8, GIRK (G protein-gated inwardly rectifying potassium channel) thallium flux, FluoZin2; at 10 µM; stronger effect = higher value; submaximal glutamate (EC20) added with thallium
The full ranking holds about 110,000 compounds; the median of “z-score” is about -0.1, and the highest 2% start at about 2. Many of the other results were omitted from the sample, so the highest values are more common in it than they were.
Quantity name: z-score

{"Molecule": "O=C(NCc1cccs1)c1cccnc1C(=O)O", "Target desc": "Metabotropic glutamate receptor 8 (Rattus norvegicus) (UniProt P70579)", "Recorded value": 5.74}
{"Molecule": "C=CCOC(=O)C1=C(C)NC(SCC)=C(C#N)C1c1ccc(Cl)cc1 (centres undefined)", "Target desc": "Metabotropic glutamate receptor 8 (Rattus norvegicus) (UniProt P70579)", "Recorded value": 0.285}
{"Molecule": "O=C(NCCO)c1scc2c1OCCO2", "Target desc": "Metabotropic glutamate receptor 8 (Rattus norvegicus) (UniProt P70579)", "Recorded value": 0.107}
{"Molecule": "CC(=O)OCC(=O)Nc1ccc(N=Nc2ccccc2)cc1", "Target desc": "Metabotropic glutamate receptor 8 (Rattus norvegicus) (UniProt P70579)", "Recorded value": 0.277}
{"Molecule": "O=C(NCc1cccs1)c1cccnc1Cl", "Target desc": "Metabotropic glutamate receptor 8 (Rattus norvegicus) (UniProt P70579)", "Recorded value": -0.317}
{"Molecule": "COc1ccc(Nc2nc(N3CCCCC3)nc3ccccc23)c(OC)c1", "Target desc": "Metabotropic glutamate receptor 8 (Rattus norvegicus) (UniProt P70579)", "Recorded value": 2.6}
{"Molecule": "O=c1c2c3c(sc2nc2n1CCCCC2)CCCCC3", "Target desc": "Metabotropic glutamate receptor 8 (Rattus norvegicus) (UniProt P70579)", "Recorded value": 8.38}
{"Molecule": "O=C(CN(Cc1ccccc1)C1=NCCS1)c1ccccc1", "Target desc": "Metabotropic glutamate receptor 8 (Rattus norvegicus) (UniProt P70579)", "Recorded value": -0.754}
{"Molecule": "CC(C)(C)NC(=O)CN(C(=O)Cn1nnc(-c2ccc(Cl)cc2)n1)C1CCN(Cc2ccccc2)CC1", "Target desc": "Metabotropic glutamate receptor 8 (Rattus norvegicus) (UniProt P70579)", "Recorded value": -0.128}
{"Molecule": "COc1ccc(Nc2nc(N3CCCC3)nc(N3CCCC3)n2)c(OC)c1", "Target desc": "Metabotropic glutamate receptor 8 (Rattus norvegicus) (UniProt P70579)", "Recorded value": 0.55}
{"Molecule": "COc1ccc(Nc2ncnc3ccccc23)c(OC)c1", "Target desc": "Metabotropic glutamate receptor 8 (Rattus norvegicus) (UniProt P70579)", "Recorded value": -0.192}
{"Molecule": "O=C(N/N=C1\\CCc2ccccc21)c1ccccc1Cl", "Target desc": "Metabotropic glutamate receptor 8 (Rattus norvegicus) (UniProt P70579)", "Recorded value": -0.225}
{"Molecule": "CC(=O)C1=C(C)NC(SCc2ccc(C#N)cc2)=C(C#N)C1c1ccco1 (centres undefined)", "Target desc": "Metabotropic glutamate receptor 8 (Rattus norvegicus) (UniProt P70579)", "Recorded value": 5.85}
{"Molecule": "COCCn1c(=S)[nH]c2cc(C(=O)N3CCC(C(N)=O)(N4CCCCC4)CC3)ccc2c1=O", "Target desc": "Metabotropic glutamate receptor 8 (Rattus norvegicus) (UniProt P70579)", "Recorded value": -0.286}
{"Molecule": "CCCCN(CC)CCCNC(=O)CS(=O)(=O)Cc1nc(-c2cccc(OC)c2)oc1C", "Target desc": "Metabotropic glutamate receptor 8 (Rattus norvegicus) (UniProt P70579)", "Recorded value": 3.63}
{"Molecule": "CCOc1ccc(-c2cn3ccccc3n2)cc1[N+](=O)[O-]", "Target desc": "Metabotropic glutamate receptor 8 (Rattus norvegicus) (UniProt P70579)", "Recorded value": 0.461}
{"Molecule": "COc1ccc(-c2csc(Nc3ccc(S(N)(=O)=O)cc3)n2)cc1", "Target desc": "Metabotropic glutamate receptor 8 (Rattus norvegicus) (UniProt P70579)", "Recorded value": -0.213}
{"Molecule": "Cc1nc(SCC(=O)N2CC(=O)Nc3ccccc32)c2c(C)c(C)sc2n1", "Target desc": "Metabotropic glutamate receptor 8 (Rattus norvegicus) (UniProt P70579)", "Recorded value": -0.286}
{"Molecule": "O=C1Nc2ccccc2SC(c2ccccc2)C1O (centres undefined)", "Target desc": "Metabotropic glutamate receptor 8 (Rattus norvegicus) (UniProt P70579)", "Recorded value": -0.0924}
{"Molecule": "Nc1ccc(C(=O)OCC(=O)NC2CCCc3ccccc32)cc1[N+](=O)[O-] (centres undefined)", "Target desc": "Metabotropic glutamate receptor 8 (Rattus norvegicus) (UniProt P70579)", "Recorded value": -0.347}
{"Molecule": "CCCC(=O)OCC(=O)Nc1ccc(N=Nc2ccccc2)cc1", "Target desc": "Metabotropic glutamate receptor 8 (Rattus norvegicus) (UniProt P70579)", "Recorded value": 0.427}
{"Molecule": "COc1ccccc1-n1c(CNC(=O)COc2ccccc2)n[nH]c1=S", "Target desc": "Metabotropic glutamate receptor 8 (Rattus norvegicus) (UniProt P70579)", "Recorded value": 2.71}
{"Molecule": "Cc1cc(=O)oc(C)c1C(=O)OCC(=O)c1ccc2ccccc2c1", "Target desc": "Metabotropic glutamate receptor 8 (Rattus norvegicus) (UniProt P70579)", "Recorded value": -0.249}
{"Molecule": "CCOc1ccccc1CNS(=O)(=O)c1ccc2c(c1)oc(=O)n2C", "Target desc": "Metabotropic glutamate receptor 8 (Rattus norvegicus) (UniProt P70579)", "Recorded value": -0.853}
{"Molecule": "CCC(=O)N1N=C(c2c(-c3ccccc3)c3cc(Cl)ccc3[nH]c2=O)CC1c1ccco1 (centres undefined)", "Target desc": "Metabotropic glutamate receptor 8 (Rattus norvegicus) (UniProt P70579)", "Recorded value": -0.155}
{"Molecule": "CCOC(=O)c1cn(-c2ccccc2CO)c2c(F)c(F)c(F)cc2c1=O", "Target desc": "Metabotropic glutamate receptor 8 (Rattus norvegicus) (UniProt P70579)", "Recorded value": -0.237}
{"Molecule": "O=c1c2c3c(sc2nc2n1CCCCC2)CCC3", "Target desc": "Metabotropic glutamate receptor 8 (Rattus norvegicus) (UniProt P70579)", "Recorded value": -0.21}
{"Molecule": "COc1nc(N/N=C/c2ccc(-c3ccccc3[N+](=O)[O-])o2)nc(N2CCOCC2)n1", "Target desc": "Metabotropic glutamate receptor 8 (Rattus norvegicus) (UniProt P70579)", "Recorded value": -0.309}
{"Molecule": "O=c1c2c3c(sc2nc2n1CCCC2)CCCCC3", "Target desc": "Metabotropic glutamate receptor 8 (Rattus norvegicus) (UniProt P70579)", "Recorded value": -0.277}
{"Molecule": "CCCc1nc(SCC(=O)Nc2nnc(CC)s2)c2c(C)c(C)sc2n1", "Target desc": "Metabotropic glutamate receptor 8 (Rattus norvegicus) (UniProt P70579)", "Recorded value": -0.42}
{"Molecule": "Cc1sc2nc(C3CCCCC3)nc(SCC(=O)N3CC(=O)Nc4ccccc43)c2c1C", "Target desc": "Metabotropic glutamate receptor 8 (Rattus norvegicus) (UniProt P70579)", "Recorded value": -0.0509}
{"Molecule": "CCc1nc(SCC(=O)Nc2nnc(CC)s2)c2c(C)c(C)sc2n1", "Target desc": "Metabotropic glutamate receptor 8 (Rattus norvegicus) (UniProt P70579)", "Recorded value": 8.71}
{"Molecule": "Cc1c2cccn2cc[n+]1C", "Target desc": "Metabotropic glutamate receptor 8 (Rattus norvegicus) (UniProt P70579)", "Recorded value": -0.16}
{"Molecule": "CSCSC1=C(C#N)C(c2ccccc2Cl)C(C(C)=O)=C(C)N1 (centres undefined)", "Target desc": "Metabotropic glutamate receptor 8 (Rattus norvegicus) (UniProt P70579)", "Recorded value": -2.68}
{"Molecule": "C=CCNc1nc(N2CCCC2)nc2ccccc12", "Target desc": "Metabotropic glutamate receptor 8 (Rattus norvegicus) (UniProt P70579)", "Recorded value": 2.37}
{"Molecule": "O=C(NCc1ccccn1)C(F)(F)C(F)(F)C(=O)NCc1ccccn1", "Target desc": "Metabotropic glutamate receptor 8 (Rattus norvegicus) (UniProt P70579)", "Recorded value": -0.509}
{"Molecule": "Cc1nnc(NC(=O)CSc2nc(C(C)C)nc3sc(C)c(C)c23)s1", "Target desc": "Metabotropic glutamate receptor 8 (Rattus norvegicus) (UniProt P70579)", "Recorded value": -0.837}
{"Molecule": "O=C(NCc1cccs1)c1ccccc1C(=O)NCc1cccs1", "Target desc": "Metabotropic glutamate receptor 8 (Rattus norvegicus) (UniProt P70579)", "Recorded value": -0.214}
{"Molecule": "CCC(C)(C)NC(=O)C(c1ccc(F)cc1)N(Cc1ccco1)C(=O)c1snc(C(N)=O)c1N (centres undefined)", "Target desc": "Metabotropic glutamate receptor 8 (Rattus norvegicus) (UniProt P70579)", "Recorded value": -0.00804}
{"Molecule": "CNC(=S)N1CCN(C(=O)C2CCCO2)CC1 (centres undefined)", "Target desc": "Metabotropic glutamate receptor 8 (Rattus norvegicus) (UniProt P70579)", "Recorded value": -0.25}
{"Molecule": "COc1ccc(-c2nnc(SCc3nnc(-c4ccc(Cl)cc4)o3)n2-c2ccccc2)cc1", "Target desc": "Metabotropic glutamate receptor 8 (Rattus norvegicus) (UniProt P70579)", "Recorded value": -1.79}
{"Molecule": "C/C(N)=C(/C#N)C(=O)CSc1nnc(COc2ccccc2Cl)o1", "Target desc": "Metabotropic glutamate receptor 8 (Rattus norvegicus) (UniProt P70579)", "Recorded value": 0.832}
{"Molecule": "c1ccc2c(N3CCCCC3)nc(N3CCCC3)nc2c1", "Target desc": "Metabotropic glutamate receptor 8 (Rattus norvegicus) (UniProt P70579)", "Recorded value": 0.2}
{"Molecule": "Cc1ccc(NC(=O)C(NC2CCCc3ccccc32)c2ccccc2)c([N+](=O)[O-])c1 (centres undefined)", "Target desc": "Metabotropic glutamate receptor 8 (Rattus norvegicus) (UniProt P70579)", "Recorded value": 2.09}
